assay: DRUGMATRIX: Calcium Channel Type L, Benzothiazepine radioligand binding (ligand: [3H] Diltiazem); assay type: cell membranes, Rattus norvegicus, Wistar, Brain, Membrane; conditions: Not Active = under 50% inhibition at 10 µM
METRIC: IC50

{"COMPOUND": "CN(C)C(=O)Oc1cc(OC(=O)N(C)C)cc(C(O)CNC(C)(C)C)c1 (configuration not stated) [BAMBUTEROL]", "OBSERVED_VALUE": "Not Active"}
{"COMPOUND": "COc1c(C)c2c(c(O)c1C/C=C(\\C)CCC(=O)O)C(=O)OC2 [MYCOPHENOLIC ACID]", "OBSERVED_VALUE": "Not Active"}
{"COMPOUND": "CC[C@@]1(O)C[C@H](O[C@H]2C[C@H](N(C)C)[C@H](O[C@H]3C[C@H](O)[C@H](O[C@H]4CCC(=O)[C@H](C)O4)[C@H](C)O3)[C@H](C)O2)c2c(cc3c(c2O)C(=O)c2c(O)cccc2C3=O)[C@H]1C(=O)OC [ACLARUBICIN]", "OBSERVED_VALUE": "Not Active"}
{"COMPOUND": "NC1=NC(=O)C(c2ccccc2)O1 (configuration not stated) [PEMOLINE]", "OBSERVED_VALUE": "Not Active"}
{"COMPOUND": "CC(C)C(=O)Nc1ccc([N+](=O)[O-])c(C(F)(F)F)c1 [FLUTAMIDE]", "OBSERVED_VALUE": "Not Active"}
{"COMPOUND": "Clc1cccc(Cl)c1NC1=NCCN1 [CLONIDINE]", "OBSERVED_VALUE": "Not Active"}
{"COMPOUND": "O=c1oc2ccccc2c(O)c1Cc1c(O)c2ccccc2oc1=O [DICUMAROL]", "OBSERVED_VALUE": "Not Active"}
{"COMPOUND": "N=C(N)NCCN1CCCCCCC1 [GUANETHIDINE]", "OBSERVED_VALUE": "Not Active"}
{"COMPOUND": "CO[C@H]1/C=C/O[C@@]2(C)Oc3c(C)c(O)c4c(O)c(c(/C=N/N5CCN(C)CC5)c(O)c4c3C2=O)NC(=O)/C(C)=C\\C=C\\[C@H](C)[C@H](O)[C@@H](C)[C@@H](O)[C@@H](C)[C@H](OC(C)=O)[C@@H]1C [RIFAMPIN]", "OBSERVED_VALUE": "Not Active"}
{"COMPOUND": "NC[C@H]1CC[C@H](C(=O)O)CC1 [TRANEXAMIC ACID]", "OBSERVED_VALUE": "Not Active"}
{"COMPOUND": "OC(Cn1cncn1)(Cn1cncn1)c1ccc(F)cc1F [FLUCONAZOLE]", "OBSERVED_VALUE": "Not Active"}
{"COMPOUND": "CC(C)[C@@]1(NC(=O)[C@@H]2C[C@@H]3c4cccc5[nH]cc(c45)C[C@H]3N(C)C2)O[C@@]2(O)[C@@H]3CCCN3C(=O)[C@H](Cc3ccccc3)N2C1=O.CS(=O)(=O)O [DIHYDROERGOCRISTINE MESYLATE]", "OBSERVED_VALUE": "Not Active"}
{"COMPOUND": "O=C(O)CCCc1ccc(N(CCCl)CCCl)cc1 [CHLORAMBUCIL]", "OBSERVED_VALUE": "Not Active"}
{"COMPOUND": "c1ccc([C@H]2CN3CCSC3=N2)cc1 [LEVAMISOLE]", "OBSERVED_VALUE": "Not Active"}
{"COMPOUND": "CCC(C)n1ncn(-c2ccc(N3CCN(c4ccc(OCC5COC(Cn6cncn6)(c6ccc(Cl)cc6Cl)O5)cc4)CC3)cc2)c1=O (configuration not stated) [ITRACONAZOLE]", "OBSERVED_VALUE": "Not Active"}
{"COMPOUND": "CNNCc1ccc(C(=O)NC(C)C)cc1 [PROCARBAZINE]", "OBSERVED_VALUE": "Not Active"}
{"COMPOUND": "COc1ccc(C[C@H]2NC[C@H](O)[C@H]2OC(C)=O)cc1 [ANISOMYCIN]", "OBSERVED_VALUE": "Not Active"}
